molecular target: human Oxytocin (OTR) receptor (Homo sapiens, UniProt P30559); construct: expressed in transfected cells; experiment: Calcium flux assay (FLIPR), agonist mode, CHO cells expressing human OTR; format: cell-based; details: maximum response normalized to endogenous full agonist = 100%
Sequence (P30559 whole entry): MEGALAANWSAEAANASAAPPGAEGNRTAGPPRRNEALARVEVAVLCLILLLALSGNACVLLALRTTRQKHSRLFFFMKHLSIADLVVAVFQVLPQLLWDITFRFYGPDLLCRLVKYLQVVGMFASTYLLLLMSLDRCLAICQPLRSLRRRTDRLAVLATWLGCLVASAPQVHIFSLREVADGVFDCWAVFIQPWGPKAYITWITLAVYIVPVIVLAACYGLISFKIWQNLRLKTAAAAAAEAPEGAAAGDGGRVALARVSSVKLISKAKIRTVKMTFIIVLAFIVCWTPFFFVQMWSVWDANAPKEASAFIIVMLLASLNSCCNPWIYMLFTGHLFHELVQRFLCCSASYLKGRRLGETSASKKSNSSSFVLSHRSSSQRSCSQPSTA
Positions of bridges follow the written chain, without caps; N, C: chain ends. Non-standard residues stand in square brackets, D forms with d. Residues, ends and D or L forms follow the SMILES beside them. Pro(trans-4-F) = O=C(O)[C@@H]1C[C@@H](F)CN1; d(aIle) = CC[C@H](C)[C@@H](N)C(=O)O; αMeL = CC(C)C[C@](C)(N)C(=O)O; Sar = CNCC(=O)O
Could you please report measured hOT efficacy (%) for the items listed next?
Quick reminder: number only, in %, skip the unit.

Look up hOT efficacy (%): CC[C@H](C)[C@@H]1NC(=O)[C@H](Cc2ccc(O)cc2)NC(=O)CNC(=O)CC[C@@H](C(=O)N2CCC[C@H]2C(=O)N[C@@H](CCCCN)C(=O)NCC(N)=O)NC(=O)[C@H](CC(N)=O)NC(=O)[C@H](CCC(N)=O)NC1=O [Example 21] (GYIQNEPKG-NH2; lactam N-6)
105

Look up hOT efficacy (%): CC[C@H](C)[C@@H]1NC(=O)[C@H](Cc2ccc(O)cc2)NC(=O)CNC(=O)CC[C@@H](C(=O)N2CCC[C@@H]2C(=O)N[C@@H](CC(C)C)C(=O)NCC(N)=O)NC(=O)[C@H](CC(N)=O)NC(=O)[C@H](CCC(N)=O)NC1=O [Example 23] (GYIQNE[dP]LG-NH2; lactam N-6)
64

Sample CC[C@H](C)[C@@H]1NC(=O)[C@H](Cc2ccc(O)cc2)NC(=O)CNC(=O)CC[C@@H](C(=O)N2CCC[C@H]2C(=O)N[C@@](C)(CC(C)C)C(=O)NCC(N)=O)NC(=O)[C@H](CC(N)=O)NC(=O)[C@H](CCC(N)=O)NC1=O [Example 36] (GYIQNEP[αMeL]G-NH2; lactam N-6) — what was its hOT efficacy (%)?
138

For the compound CC[C@H](C)[C@@H]1NC(=O)[C@H](Cc2ccc(O)cc2)NC(=O)CNC(=O)CC[C@@H](C(=O)N2CCC[C@H]2C(=O)N[C@@H](CC(C)C)C(=O)NCC(N)=O)NC(=O)[C@H](CC(N)=O)NC(=O)[C@H](Cc2cnc[nH]2)NC1=O [Example 9] (GYIHNEPLG-NH2; lactam N-6) , what hOT efficacy (%) is on record?
93

# hOT efficacy (%) lookup, item CC[C@H](C)[C@@H]1NC(=O)[C@H](Cc2ccc(O)cc2)NC(=O)CNC(=O)CC[C@@H](C(=O)N(C)CC(=O)N[C@@H](CC(C)C)C(=O)NCC(N)=O)NC(=O)[C@H](CC(N)=O)NC(=O)[C@H](C(C)C)NC1=O [Example 55] (GYIVNE[Sar]LG-NH2; lactam N-6)
104

So what does the record say about hOT efficacy (%) for CC[C@H](C)[C@@H]1NC(=O)[C@H](Cc2ccc(O)cc2)NC(=O)CNC(=O)CC[C@@H](C(=O)N[C@@H](C)C(=O)N[C@@H](CC(C)C)C(=O)NCC(N)=O)NC(=O)[C@H](CC(N)=O)NC(=O)[C@H](CCC(N)=O)NC1=O [Example 17] (GYIQNEALG-NH2; lactam N-6) ?
92

What does the data say about its hOT efficacy (%)? Entry: CC[C@H](C)[C@@H]1NC(=O)[C@H](Cc2ccc(O)cc2)NC(=O)CNC(=O)CC[C@@H](C(=O)N2CCC[C@H]2C(=O)NCC(=O)NCC(N)=O)NC(=O)[C@H](CC(N)=O)NC(=O)[C@H](CCC(N)=O)NC1=O [Example 7] (GYIQNEPGG-NH2; lactam N-6)
87

# hOT efficacy (%) lookup, item CC[C@H](C)[C@@H]1NC(=O)[C@H](Cc2ccc(O)cc2)NC(=O)CNC(=O)CC[C@@H](C(=O)N2C[C@H](F)C[C@H]2C(=O)N[C@@H](CC(C)C)C(=O)NCC(N)=O)NC(=O)[C@H](CC(N)=O)NC(=O)[C@H](CCC(N)=O)NC1=O [Example 46] (GYIQNE[Pro(trans-4-F)]LG-NH2; lactam N-6)
104

Which hOT efficacy (%) value is on record for CC[C@H](C)[C@H]1NC(=O)[C@H](Cc2ccc(O)cc2)NC(=O)CNC(=O)CC[C@@H](C(=O)N2CCC[C@H]2C(=O)N[C@@H](CC(C)C)C(=O)NCC(N)=O)NC(=O)[C@H](CC(N)=O)NC(=O)[C@H](CCC(N)=O)NC1=O [Example 22] (GY[d(aIle)]QNEPLG-NH2; lactam N-6) ?
116

Give its hOT efficacy (%) value. Item: CC[C@H](C)[C@@H]1NC(=O)[C@H](Cc2ccc(O)cc2)NC(=O)CNC(=O)CC[C@@H](C(=O)N(C)CC(=O)N[C@@H](CO)C(=O)NCC(N)=O)NC(=O)[C@H](CC(N)=O)NC(=O)[C@H](CCC(N)=O)NC1=O [Example 28] (GYIQNE[Sar]SG-NH2; lactam N-6)
122

# lookup: hOT efficacy (%) of CC[C@H](C)[C@@H]1NC(=O)[C@H](Cc2ccc(O)cc2)NC(=O)CNC(=O)CC[C@H](C(=O)N2CCC[C@H]2C(=O)N[C@@H](CC(C)C)C(=O)NCC(N)=O)NC(=O)[C@H](CC(N)=O)NC(=O)[C@H](CCC(N)=O)NC1=O [Example 14] (GYIQN[dE]PLG-NH2; lactam N-6)
92

# hOT efficacy (%) lookup, item CC[C@H](C)[C@@H]1NC(=O)[C@H](Cc2ccc(O)cc2)NC(=O)CNC(=O)CC[C@@H](C(=O)N(C)CC(=O)N[C@H](C(=O)NCC(N)=O)C(C)C)NC(=O)[C@H](CC(N)=O)NC(=O)[C@H](CCC(N)=O)NC1=O [Example 26] (GYIQNE[Sar]VG-NH2; lactam N-6)
124

Value lookup for hOT efficacy (%); key = CC[C@H](C)[C@@H]1NC(=O)[C@H](Cc2ccc(O)cc2)NC(=O)[C@H](C)NC(=O)CC[C@@H](C(=O)N2CCC[C@H]2C(=O)N[C@@H](CC(C)C)C(=O)NCC(N)=O)NC(=O)[C@H](CC(N)=O)NC(=O)[C@H](CCC(N)=O)NC1=O [Example 3] (AYIQNEPLG-NH2; lactam N-6)
94
